test system: A. baumannii strain 5075 (AB5075); assay: Macrolide sensitization / antibiotic resensitization: antibiotic MIC in presence of compound (broth microdilution); type: cell-based, Acinetobacter baumannii; conditions: compound at 60 μM vs antibiotic alone; AB5075
assay_readout: Fold reduction (erythromycin MIC) (fold)
Give bare numbers, in fold.

Some compounds with recorded Fold reduction (erythromycin MIC):
1. Nc1nc(-c2ccc(NC(=O)c3cccc(Br)c3)cc2)c[nH]1: 8
2. CCCCCCCCCCn1c(CCCCCC)cnc1N.Cl: 4
3. Nc1nc(-c2ccc(NC(=O)c3ccc(Cl)cc3)cc2)c[nH]1: 4

Now for a further compound.
Q. Look up Fold reduction (erythromycin MIC) with A. baumannii strain 5075 (AB5075) for this compound: CCCCCc1ccc(C(=O)NCCn2cc(CCCCCc3cnc(N)n3Cc3ccc(CCCC)cc3)nn2)cc1
A. 4

###

system: A. baumannii strain 5075 (AB5075); assay: Macrolide sensitization / antibiotic resensitization: antibiotic MIC in presence of compound (broth microdilution); type: cell-based, Acinetobacter baumannii; details: compound at 30 μM vs antibiotic alone; AB5075
assay_readout: Fold reduction (clarithromycin MIC) (fold)
Give bare numbers, in fold.

Each of the following entries comes with a recorded value; kindly state Fold reduction (clarithromycin MIC) for each.
1. Nc1nc(-c2ccc(NC(=O)c3cc(Br)cc(Br)c3)cc2)c[nH]1 [Compound 4]
2. Nc1nc(-c2ccc(NC(=O)c3cc(F)c(F)c(F)c3)cc2)c[nH]1 [Compound 8]

A.
1: 128; 2: 32

Could you tell me Fold reduction (clarithromycin MIC) for each of these compounds? They are listed below.
1. Cl.Nc1nc(-c2ccc(NC(=O)/C=C/c3ccccc3)cc2)c[nH]1 [Compound 2]
2. Nc1nc(-c2ccc(NC(=O)c3ccc(Cl)c(Cl)c3)cc2)c[nH]1 [Compound 9]
3. CCCCCCCCCCCNC(=O)CCCc1c[nH]c(C)n1.Cl [Compound 5]

A.
[32, 64, 256]

###

system: A. baumannii strain 5075 (AB5075); test: Macrolide sensitization / antibiotic resensitization: antibiotic MIC in presence of compound (broth microdilution); assay type: cell-based, Acinetobacter baumannii; conditions: in presence of compound at 30 μM; AB5075
Task for the reader: assign each of the following molecules its reported Azithromycin MIC.
Numbers only, in µg/mL.

Known results for molecules:
1. CCCCCCCCCCCNC(=O)CCCc1c[nH]c(C)n1.Cl: 8
2. Cl.Nc1nc(-c2ccc(NC(=O)/C=C/c3ccccc3)cc2)c[nH]1: 16
3. Nc1nc(-c2ccc(NC(=O)c3cc(Br)cc(Br)c3)cc2)c[nH]1: 8

Q. What value of measured Azithromycin MIC is listed for Nc1nc(-c2ccc(NC(=O)c3cc(Cl)cc(Cl)c3)cc2)c[nH]1 ?
A. 8

###

system: A. baumannii strain 5075 (AB5075); experiment: Macrolide sensitization / antibiotic resensitization: antibiotic MIC in presence of compound (broth microdilution); type: cell-based, Acinetobacter baumannii; conditions: compound at 60 μM vs antibiotic alone; AB5075
assay_readout: Fold reduction (erythromycin MIC) (fold)
Numbers only, in fold.

1. CCCCCCCCCCNC(=O)Cn1cc(CCCCCc2c[nH]c(N)n2)nn1.Cl: 4
2. CCCCCCC(=O)Nc1cccc(-c2c[nH]c(N)n2)c1.Cl: 4
3. Nc1nc(-c2ccc(NC(=O)c3ccc(Cl)cc3Cl)cc2)c[nH]1: 4

Next compound, Fold reduction (erythromycin MIC) to be filled in.
Q. Notebook entry, A. baumannii strain 5075 (AB5075) assay: Fold reduction (erythromycin MIC) of CCCCCC(=O)Nc1ccc(-c2c[nH]c(N)n2)cc1.Cl = ?
A. 16

Measured values drawn from patent US20210283107A1 for this set.
